System: HCT116
protocol.description: cell viability (CellTiter-Glo) relative to plate median (fraction of plate median); higher = more viable cells
particulars: 5 µM; treatment time 24 h; reporter: TCF4/Wnt
Response field label takes YES when cell viability is strictly below 1 and NO in all other cases.

Ask: Threshold test, cell viability < 1: OCc1cccnc1
Result: NO

Ask: For this compound, is cell viability lower than 1? CC(=O)OCC1=C(C(=O)O)N2C(=O)[C@@H](NC(=O)Cc3cccs3)[C@H]2SC1
Result: NO

Ask: Report whether reported cell viability is lower than 1 (strictly) for Nc1ncn([C@@H]2O[C@H](CO)[C@@H](O)[C@H]2O)c(=O)n1
Result: YES

Ask: Input CC1(C)C=Cc2c(cc3occ(-c4ccc5c(c4)OCO5)c(=O)c3c2O)O1 ; condition: cell viability strictly below 1. Does it hold?
Result: YES

Ask: Does the reported cell viability of CC(CCc1ccc(O)cc1)NCCc1ccc(O)c(O)c1 (stereo unspecified) stay below 1?
Result: NO

Ask: Does CO[C@H]1C[C@H](O[C@@H]2/C(C)=C/C[C@@H]3C[C@@H](C[C@]4(CC[C@H](C)[C@@H](C5CCCCC5)O4)O3)OC(=O)[C@@H]3C=C(C)/C(=N/O)[C@H]4OC/C(=C\C=C\[C@@H]2C)[C@]43O)O[C@@H](C)[C@@H]1O have cell viability strictly under 1?
Result: YES

Ask: is_below(cell viability, 1) for COC(=O)[C@H](Cc1ccccc1)NC(=O)[C@@H](N)CC(=O)O ?
Result: NO

Ask: Is the reported cell viability for O=c1oc2c(O)c(O)cc3c(=O)oc4c(O)c(O)cc1c4c23 strictly below 1?
Result: NO

Ask: Say whether its cell viability is strictly beneath 1. Entry: O=C(O)c1cc(=O)c(O)c2c(O)c(O)c(O)cc2c1
Result: YES

Ask: Does the reported cell viability of O=C(O)c1cc(O)c2c(c1)[C@H]([C@H]1c3cc(C(=O)O)cc(O)c3C(=O)c3c(O[C@@H]4O[C@H](CO)[C@@H](O)[C@H](O)[C@H]4O)cccc31)c1cccc(O[C@@H]3O[C@H](CO)[C@@H](O)[C@H](O)[C@H]3O)c1C2=O stay below 1?
Result: YES

###

Test system: DLD1
protocol.description: cell viability (CellTiter-Glo) relative to plate median (fraction of plate median); higher = more viable cells
particulars: 5 µM; treatment time 24 h; reporter: 7TFP
Provide the reported cell viability of each item.
Form rule: numeric answer, no unit written next to it.

Ask: Note down cell viability recorded for O=c1occ(C(O)CO)c2cccc(O)c12 (centres undefined)
Result: 0.886

Ask: Identify the reported cell viability for the following entry. CC(C)(Oc1ccc(C2CC2(Cl)Cl)cc1)C(=O)O (centres undefined)
Result: 1.06

Ask: Hello, please tell me recorded cell viability for this one: O=c1ccn([C@@H]2O[C@H](COP(=O)(O)OP(=O)(O)OP(=O)(O)O)[C@@H](O)[C@H]2O)c(=O)[nH]1
Result: 0.986

Ask: Input C=C1C(=O)C[C@@H]2[C@@H]3CC[C@@H](C(=O)O)[C@@]12CC3(C)C , output reported cell viability.
Result: 0.873

Ask: Answer with reported cell viability of CC(c1cc2ccccc2s1)N(O)C(N)=O (centres undefined)
Result: 1.03

Ask: Return cell viability for the following compound: O=C(Nc1ccc([N+](=O)[O-])cc1Cl)c1cc(Cl)ccc1O
Result: 0.764

Ask: Respond only with cell viability recorded for Nc1ccn([C@@H]2O[C@H](CO)[C@@H](O)[C@@H]2O)c(=O)n1
Result: 0.987

Ask: Find the measured cell viability of COc1ccc2c(c1)OCC(Cc1ccc(OC)c(OC)c1)C2=O (centres undefined) and report it.
Result: 0.995

Ask: Give the reported cell viability for this compound. C/C=C/C=C/c1cc2cc3c(c(O)c2c(=O)[nH]1)C1(CC3)C(O)=c2c(=O)c3c(=O)cc(OC)c(=O)c=3c(=O)c2=C1O (centres undefined)
Result: 1.03

Ask: For CO/N=C(\C(=O)N[C@@H]1C(=O)N2C(C(=O)OCOC(=O)C(C)(C)C)=C(/C=C\c3scnc3C)CS[C@H]12)c1csc(N)n1 , write its cell viability.
Result: 1.02

Ask: Give recorded cell viability. CO[C@H]1/C=C/O[C@@]2(C)Oc3c(C)c(O)c4c(O)c(c5c(nc6cc(C)ccn65)c4c3C2=O)NC(=O)/C(C)=C\C=C\[C@H](C)[C@H](O)[C@@H](C)[C@@H](O)[C@@H](C)[C@H](OC(C)=O)[C@@H]1C
Result: 1.05

Ask: Note cell viability for the compound shown: CC(C)(C)NC[C@H](O)c1ccc(O)c(CO)c1
Result: 1.01

Ask: // Input: C[C@@H]1CC[C@@]2(OC1)O[C@H]1C[C@H]3[C@@H]4CC[C@H]5C[C@@H](O)CC[C@]5(C)[C@H]4CC[C@]3(C)[C@H]1[C@@H]2C . Output its cell viability only.
Result: 0.953

Ask: Identify cell viability associated with the compound CC(C)C1=CC2=CC[C@@H]3[C@](C)(CCC[C@@]3(C)C(=O)O)[C@H]2CC1
Result: 0.967

Ask: Read off the recorded cell viability for CCOC(=O)n1ccn(C)c1=S
Result: 0.985

Ask: // Input: COc1ccc2c(=O)c(-c3cc4c(cc3OC)OCO4)coc2c1 . Output its cell viability only.
Result: 0.995

Ask: Read the entry COc1ccc(C=CC(=O)O)cc1OC and write its reported cell viability.
Result: 0.993

Ask: Assign cell viability to the following record: Cc1ccccc1OCC(O)CO (centres undefined)
Result: 0.958

Ask: Please look at this compound and report its cell viability: CCCCCC1C(=O)CCC1CC(=O)O (centres undefined)
Result: 1.02

###

System: DLD1
protocol.description: TCF/Wnt firefly luciferase reporter signal relative to plate median (fraction of plate median); higher = higher Wnt reporter signal
particulars: 5 µM; treatment time 24 h; reporter: 7TFP
assay.metric: TCF/Wnt firefly luciferase reporter signal

Ask: In one line, give reported TCF/Wnt firefly luciferase reporter signal of the entry Cn1ccnc1S .
Result: 0.988

Ask: // Input: C=C(C)[C@@H]1CC[C@]2(C(=O)O)CC[C@]3(C)[C@H](CC[C@@H]4[C@@]5(C)CC[C@H](O)C(C)(C)[C@@H]5CC[C@]43C)[C@@H]12 . Output its TCF/Wnt firefly luciferase reporter signal only.
Result: 1.05

Ask: Please give measured TCF/Wnt firefly luciferase reporter signal of the following entry: COc1cc(/C=C/C(=O)O)cc(OC)c1OC
Result: 0.827

Ask: Specify reported TCF/Wnt firefly luciferase reporter signal for the molecule shown: C=CCc1ccc(O)c(OC)c1
Result: 1.06

Ask: Query TCF/Wnt firefly luciferase reporter signal for c1coc(CNc2ncnc3[nH]cnc23)c1
Result: 0.996

Ask: Give TCF/Wnt firefly luciferase reporter signal for Nc1c(Br)cc(Br)cc1CN[C@H]1CC[C@H](O)CC1
Result: 0.944

Ask: Could you please provide reported TCF/Wnt firefly luciferase reporter signal for CCCCC(CC)CN1CN(CC(CC)CCCC)CC(C)(N)C1 (configuration not stated) ? Thanks!
Result: 1.01

Ask: Determine from records and report TCF/Wnt firefly luciferase reporter signal for Cc1nnc(SCC2=C(C(=O)O)N3C(=O)[C@@H](NC(=O)Cn4cnnn4)[C@H]3SC2)s1
Result: 0.942

Ask: For the molecule O=c1c(-c2ccc(O)cc2)coc2cc(O)ccc12 [Daidzein (Biofocus)] , give its measured TCF/Wnt firefly luciferase reporter signal value.
Result: 1.11

Ask: Please report TCF/Wnt firefly luciferase reporter signal for the following molecule: CCCCN1CCCCC1C(=O)Nc1c(C)cccc1C (configuration not stated)
Result: 0.901

Ask: Specify TCF/Wnt firefly luciferase reporter signal for Cc1cc(C(C)(C)C)c(O)c(C)c1CC1=NCCN1 and stop.
Result: 1.15

Ask: Please indicate TCF/Wnt firefly luciferase reporter signal recorded for CN1CCCN=C1/C=C/c1cccs1
Result: 1.14

###

Test system: HCT116
protocol.description: cell viability (CellTiter-Glo) relative to plate median (fraction of plate median); higher = more viable cells
particulars: 5 µM; treatment time 24 h; reporter: TCF4/Wnt
assay.metric: cell viability

Ask: For the molecule O=C(O)c1cc(=O)c2c(Cl)cc(Cl)cc2[nH]1 , report cell viability.
Result: 0.968

Ask: State its cell viability for this molecule: C[C@@]12C[C@@]3(O)O[C@@H](O1)[C@]1(COC(=O)c4ccccc4)[C@H]3C[C@@]12O[C@@H]1O[C@H](CO)[C@@H](O)[C@H](O)[C@H]1O
Result: 0.887

Ask: Look up and report measured cell viability for this entry: COc1c(O)cc2c(c1O)[C@@H]1O[C@H](CO)[C@@H](O)[C@H](O)[C@H]1OC2=O
Result: 0.912

Ask: For the molecule C[C@@H]1O[C@@H](O[C@H]2[C@H](Oc3cc(O)c4c(c3)O[C@H](c3ccc(O)cc3)CC4=O)O[C@H](CO)[C@@H](O)[C@@H]2O)[C@H](O)[C@H](O)[C@H]1O , give its measured cell viability value.
Result: 0.916

Ask: Supply measured cell viability of CN[C@@H]1[C@H](O[C@H]2[C@H](O[C@H]3[C@H](O)[C@@H](O)[C@H](NC(=N)N)[C@@H](O)[C@@H]3NC(=N)N)O[C@@H](C)[C@]2(O)CO)O[C@@H](CO)[C@H](O)[C@H]1O in your reply.
Result: 1.13

Ask: Output measured cell viability for this item: C=CC1=C(C)/C(=C/c2[nH]c(Cc3[nH]c(/C=C4\NC(=O)C(C)=C4C=C)c(C)c3CCC(=O)O)c(CCC(=O)O)c2C)NC1=O
Result: 1.03
